molecular target: Fyn (UniProt P06241); experiment: phosphorylation enrichment, bacterial display (enrichment ratio); higher = better substrate or ligand; peptides without Tyr show the background;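 note: 11-residue human phosphosite peptides and single-mutation variants displayed on the E. coli surface, counted by deep sequencing, each peptide's frequency after selection divided by its frequency in the unselected input library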;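 note: frequency after pTyr selection over input frequency; kinase dosed for 20-30% of maximal phosphorylation in three min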
Sequence (P06241 whole entry, looked up): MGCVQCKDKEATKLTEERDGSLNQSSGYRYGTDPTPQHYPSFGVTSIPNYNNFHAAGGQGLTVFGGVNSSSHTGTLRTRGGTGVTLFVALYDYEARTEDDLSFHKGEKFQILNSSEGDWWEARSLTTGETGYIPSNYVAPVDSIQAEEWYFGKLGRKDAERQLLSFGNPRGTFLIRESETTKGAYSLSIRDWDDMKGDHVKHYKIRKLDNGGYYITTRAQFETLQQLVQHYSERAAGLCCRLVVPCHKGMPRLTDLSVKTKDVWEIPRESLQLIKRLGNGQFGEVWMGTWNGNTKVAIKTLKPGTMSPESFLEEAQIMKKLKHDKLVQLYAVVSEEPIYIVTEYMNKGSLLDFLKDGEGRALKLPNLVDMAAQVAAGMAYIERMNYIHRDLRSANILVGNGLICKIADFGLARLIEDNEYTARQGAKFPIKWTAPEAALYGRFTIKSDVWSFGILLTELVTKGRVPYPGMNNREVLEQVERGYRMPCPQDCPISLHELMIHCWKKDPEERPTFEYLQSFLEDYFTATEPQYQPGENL

>  <seq>
MDDPRYGMCPL [ZNF100_Y6]

>  <study system>
Fyn (UniProt P06241)

>  <phosphorylation enrichment>
0.721

$$$$
>  <seq>
SVVVPYQPPEV [TP53_Y220_E221Q]

>  <study system>
Fyn (UniProt P06241)

>  <phosphorylation enrichment>
0.399

$$$$
>  <seq>
NTPNTYLRVNV [ADD2_Y440]

>  <study system>
Fyn (UniProt P06241)

>  <phosphorylation enrichment>
0.433

$$$$
>  <seq>
DLDFTYIFPNI [PTEN_Y27_L25F_YF]

>  <study system>
Fyn (UniProt P06241)

>  <phosphorylation enrichment>
4.4

$$$$
>  <seq>
IENKLYGMSDP [RET_Y1062]

>  <study system>
Fyn (UniProt P06241)

>  <phosphorylation enrichment>
0.613

$$$$
>  <seq>
ICANKYMVESC [RPL10_Y75_K78E]

>  <study system>
Fyn (UniProt P06241)

>  <phosphorylation enrichment>
0.47

$$$$
>  <seq>
PIYEGYALPHA [ACTA1_Y171]

>  <study system>
Fyn (UniProt P06241)

>  <phosphorylation enrichment>
19.8

$$$$
>  <seq>
HLWRIYFDITD [MMP27_Y307_YF]

>  <study system>
Fyn (UniProt P06241)

>  <phosphorylation enrichment>
0.532

$$$$
